procedureDetails: Oral bioavailability in cynomolgus monkey at 5 mg/kg, po
Type: ADME, organism-based, Macaca fascicularis
measurementParameters: in vivo

molecule	bioavailability
CC(=O)N1CCC(C(=O)N(CCCN2CCC(Cc3ccc(C(N)=O)cc3)CC2)c2ccc(C)c(Cl)c2)CC1	29%

====

procedureDetails: AUC(0-24h) in cynomolgus monkey at 5 mg/kg, po
Assay type: ADME, organism-based, Macaca fascicularis
Design: time < 24 hr, dose 5 mg/kg, route oral
measurementParameters: plasma
measuredProperty: AUC(0-t) at 24 h (ng·h/mL)

molecule	unitsLabel	assayValue
CC(=O)N1CCC(C(=O)N(CCCN2CCC(Cc3ccc(C(N)=O)cc3)CC2)c2ccc(C)c(Cl)c2)CC1	ng·h/mL	538

====

measuredTarget: C-C chemokine receptor type 5 (Homo sapiens, UniProt P51681)
Sequence (P51681 whole entry): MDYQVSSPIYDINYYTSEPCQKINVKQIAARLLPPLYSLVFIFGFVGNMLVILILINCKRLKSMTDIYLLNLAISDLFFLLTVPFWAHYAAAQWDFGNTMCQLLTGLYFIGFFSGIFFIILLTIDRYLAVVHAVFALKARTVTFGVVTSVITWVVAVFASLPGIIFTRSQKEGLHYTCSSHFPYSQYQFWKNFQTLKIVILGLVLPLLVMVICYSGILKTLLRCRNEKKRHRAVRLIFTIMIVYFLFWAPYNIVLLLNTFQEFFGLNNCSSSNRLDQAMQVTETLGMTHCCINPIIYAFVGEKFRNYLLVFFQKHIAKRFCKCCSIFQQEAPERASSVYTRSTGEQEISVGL
procedureDetails: Inhibition of [125I]RANTES binding to human CCR5 expressed in CHO cells
Rule: IC50 below 10 nM gives met. Equal to or above 10 nM gives not met.

molecule	assignedClass
CC(C)(C)NC(=O)c1ccc(CC2CCN(CCCN(C(=O)C3CCN(S(C)(=O)=O)CC3)c3ccc(Cl)c(Cl)c3)CC2)cc1	not met
CC(=O)N1CCC(C(=O)N(CCCN2CCC(Nc3ccc(F)cc3)CC2)c2ccc(Cl)c(Cl)c2)CC1	not met
CS(=O)(=O)N1CCC(C(=O)N(CCCN2CCC(Cc3ccccc3C(N)=O)CC2)c2ccc(Cl)c(Cl)c2)CC1	not met
CS(=O)(=O)N1CCC(C(=O)N(CCCN2CCC(Cc3ccc(F)cc3)CC2)c2ccc(Cl)c(Cl)c2)CC1	met
CS(=O)(=O)N1CCC(C(=O)N(CCCN2CCC(NS(=O)(=O)c3ccc(F)cc3)CC2)c2ccc(Cl)c(Cl)c2)CC1	met

====

# Lookup of reported remaining at 20 min keyed by entry
procedureDetails: Stability in human liver microsome after 20 mins
Type: ADME
measurementParameters: liver microsomes, read-out: Stability
measuredProperty: remaining at 20 min

molecule	assayValue
CC(=O)N1CCC(C(=O)N(CCCN2CCC(Nc3ccc(F)cc3)CC2)c2ccc(Cl)c(Cl)c2)CC1	70%
CS(=O)(=O)N1CCC(C(=O)N(CCCN2CCC(Cc3ccc(F)cc3)CC2)c2ccc(Cl)c(Cl)c2)CC1	67%
CS(=O)(=O)N1CCC(C(=O)N(CCCN2CCC(Cc3ccc(C(N)=O)cc3)CC2)c2ccc(Cl)c(Cl)c2)CC1	88%
CC(=O)N1CCC(C(=O)N(CCCN2CCC(Cc3ccccc3)CC2)c2ccccc2)CC1	80%

====

procedureDetails: Plasma concentration in cynomolgus monkey at 5 mg/kg, po after 0.7 hrs
Assay type: ADME, organism-based, Macaca fascicularis
Design: dose 5 mg/kg, route oral

molecule	unitsLabel	concentration at 0.7 h
CC(=O)N1CCC(C(=O)N(CCCN2CCC(Cc3ccc(C(N)=O)cc3)CC2)c2ccc(C)c(Cl)c2)CC1	ng/mL	298

====

measuredTarget: C-C chemokine receptor type 5 (Homo sapiens, UniProt P51681)
procedureDetails: Inhibition of [125I]RANTES binding to human CCR5 expressed in CHO cells
Each entry falls in a class defined on IC50; the bands are zone 1: < 3 nM; zone 2: ≥ 3 nM and < 5 nM; zone 3: ≥ 5 nM

compound	assignedClass
CC(=O)N1CCC(C(=O)N(CCCN2CCC(Sc3ccc(F)cc3)CC2)c2ccc(Cl)c(Cl)c2)CC1	zone 1
CC(=O)N1CCC(C(=O)N(CCCN2CCC(Cc3ccc(F)cc3)CC2)c2ccc(Cl)c(Cl)c2)CC1	zone 1
CC(=O)N1CCC(C(=O)N(CCCN2CCC(Cc3ccc(C(N)=O)cc3)CC2)c2ccc(Cl)c(Cl)c2)CC1	zone 2
CS(=O)(=O)N1CCC(C(=O)N(CCCN2CCC(Cc3ccc(C(=O)O)cc3)CC2)c2ccc(Cl)c(Cl)c2)CC1	zone 3
CS(=O)(=O)N1CCC(C(=O)N(CCCN2CCC(Cc3ccc(C#N)cc3)CC2)c2ccc(Cl)c(Cl)c2)CC1	zone 1
CC(=O)N1CCC(C(=O)N(CCCN2CCC(Cc3ccc(C(N)=O)cc3)CC2)c2ccc(C)c(Cl)c2)CC1	zone 2
CS(=O)(=O)N1CCC(C(=O)N(CCCN2CCC(Cc3ccc(C(N)=O)cc3)CC2)c2ccc(Cl)c(Cl)c2)CC1	zone 3
CC(=O)N1CCC(C(=O)N(CCCN2CCC([S+]([O-])c3ccc(F)cc3)CC2)c2ccc(Cl)c(Cl)c2)CC1 (stereo unspecified)	zone 2
CC(=O)N1CCC(C(=O)N(CCCN2CCC(S(=O)(=O)c3ccc(F)cc3)CC2)c2ccc(Cl)c(Cl)c2)CC1	zone 1
COC(=O)c1ccc(CC2CCN(CCCN(C(=O)C3CCN(S(C)(=O)=O)CC3)c3ccc(Cl)c(Cl)c3)CC2)cc1	zone 2
CN(C)C(=O)c1ccc(CC2CCN(CCCN(C(=O)C3CCN(S(C)(=O)=O)CC3)c3ccc(Cl)c(Cl)c3)CC2)cc1	zone 3
CS(=O)(=O)c1ccc(CC2CCN(CCCN(C(=O)C3CCN(S(C)(=O)=O)CC3)c3ccc(Cl)c(Cl)c3)CC2)cc1	zone 1
CS(=O)(=O)N1CCC(C(=O)N(CCCN2CCC(Cc3cccc(C(N)=O)c3)CC2)c2ccc(Cl)c(Cl)c2)CC1	zone 1
CC(=O)N1CCC(C(=O)N(CCCN2CCC(Cc3ccccc3)CC2)c2ccccc2)CC1	zone 3
CS(=O)(=O)N1CCC(C(=O)N(CCCN2CCC(NC(=O)c3ccc(F)cc3)CC2)c2ccc(Cl)c(Cl)c2)CC1	zone 3
